test system: HCV genotype 1b (Con1) replicon in HUH-7 cells; assay: HCV replicon luciferase reporter assay, genotype 1b; format: cell-based; conditions: Hepatitis C virus, Huh-7, 72 h, HCV genotype 1b replicon luciferase, 3 days incubation, read-out: LE_1b (EC50, range)
pEC50: −log10 of the molar value.
parameter_measured: pEC50

Please review the entries below; each comes with its answer.
CCn1nc(O[C@@H]2C[C@H]3C(=O)N[C@]4(C(=O)NS(=O)(=O)C5(C)CC5)C[C@H]4/C=C\CC[C@@H](C)C[C@@H](C)[C@H](NC(=O)c4ccc(N(C)C)cc4)C(=O)N3C2)c2ccccc2c1=O : 6.99 to 8.32
CC[C@@H]1C[C@H](C)CC/C=C\[C@@H]2C[C@@]2(C(=O)NS(=O)(=O)C2CC2)NC(=O)[C@@H]2C[C@@H](Oc3nc4cc(OC)ccc4nc3Cl)CN2C(=O)[C@H]1NC(=O)OC(C)(C)C : 9.30 to 10.00
COc1ccc2c(O[C@@H]3C[C@H]4C(=O)N[C@]5(C(=O)NS(=O)(=O)C6(F)CC6)C[C@H]5/C=C\CC[C@@H](C)C[C@@H](C)[C@H](NC(=O)OC5CCCCC5)C(=O)N4C3)nccc2c1 : > 8.26

// each compound listed below needs its pEC50
1. CC[C@@H]1C[C@H](C)CC/C=C\[C@@H]2C[C@@]2(C(=O)NS(=O)(=O)C2(C)CC2)NC(=O)[C@@H]2C[C@@H](Oc3nccc4c5c(ccc34)N(C)CCO5)CN2C(=O)[C@H]1NC(=O)OC(C)(C)C
2. CC[C@@H]1C[C@H](C)CC/C=C\[C@@H]2C[C@@]2(C(=O)NS(=O)(=O)C2(C)CC2)NC(=O)[C@@H]2C[C@@H](Oc3ncc(OC)c4cc(N(C)C)ccc34)CN2C(=O)[C@H]1NC(=O)OC(C)(C)C
3. CCOc1cc2ccnc(O[C@@H]3C[C@H]4C(=O)N[C@]5(C(=O)NS(=O)(=O)C6(C)CC6)C[C@H]5/C=C\CC[C@@H](C)C[C@@H](CC)[C@H](NC(=O)OC(C)(C)C(F)F)C(=O)N4C3)c2cc1F
4. C[C@@H]1CC/C=C\[C@@H]2C[C@@]2(C(=O)NS(=O)(=O)C2(C)CC2)NC(=O)[C@@H]2C[C@@H](Oc3ncnc4c(Cl)cccc34)CN2C(=O)[C@@H](NC(=O)OC(C)(C)C)[C@H](C)C1
5. C[C@@H]1CC/C=C\[C@@H]2C[C@@]2(C(=O)NS(=O)(=O)C2(C)CC2)NC(=O)[C@@H]2C[C@@H](Oc3nccc4c5c(ccc34)N(C)CCO5)CN2C(=O)[C@@H](NC(=O)NC(C)(C)C)[C@H](C)C1
6. COc1cnc(O[C@@H]2C[C@H]3C(=O)N[C@]4(C(=O)NS(=O)(=O)C5(CF)CC5)C[C@H]4CCCC[C@@H](C)C[C@@H](C)[C@H](NC(=O)NC(C)(C)C)C(=O)N3C2)c2ccccc12

A:
["> 8.26", "8.30 to 9.00", "9.00 to 9.29", "> 8.26", "> 8.26", "> 8.26"]

---

Record form. Attribute: EC50. Fill in for each entry.
tested on: HCV genotype 1b (Con1) replicon in HUH-7 cells; assay: HCV replicon luciferase reporter assay, genotype 1b; format: cell-based; conditions: Hepatitis C virus, Huh-7, 72 h, HCV genotype 1b replicon luciferase, 3 days incubation, read-out: LE_1b (EC50, range)

C[C@@H]1CC/C=C\[C@@H]2C[C@@]2(C(=O)NS(=O)(=O)C2(CF)CC2)NC(=O)[C@@H]2C[C@@H](Oc3nccc4c5c(ccc34)OCCO5)CN2C(=O)[C@@H](NC(=O)OC(C)(C)C(F)(F)F)[C@H](C)C1 : < 5.46 nM

Parameters: items (list). Returns: EC50 for each item.
1. COc1ccc2c(O[C@@H]3C[C@H]4C(=O)N[C@]5(C(=O)NS(=O)(=O)C6CC6)C[C@H]5/C=C\CC[C@@H](C)C[C@@H](C)[C@H](NC(=O)OC(C)(C)C(F)(F)F)C(=O)N4C3)nc(-c3ccc4c(c3)OCCO4)cc2c1
2. COc1ccc2c(O[C@@H]3C[C@H]4C(=O)N[C@]5(C(=O)NS(=O)(=O)C6CC6)C[C@H]5/C=C\CC[C@@H](C)C[C@@H](C)[C@H](NC(=O)O[C@@H]5C[C@@H]6C[C@@H]6C5)C(=O)N4C3)nc(-c3ccccc3)cc2c1
3. COc1ccc2c(O[C@@H]3C[C@H]4C(=O)N[C@]5(C(=O)NS(=O)(=O)C6(C)CC6)C[C@H]5/C=C\CC[C@H](C)C[C@@H](C)[C@H](NC(=O)OC(C)(C)C)C(=O)N4C3)nc(OC(C)C)cc2c1

A:
1: < 5.46 nM; 2: < 5.46 nM; 3: 0.51 to 1 nM
